Origin of measurements: patent US20240382494A1

- target.or.test.system: SARS-CoV-2 PLpro (Severe acute respiratory syndrome coronavirus 2, UniProt P0DTD1)
- assay.explanation: FRET-based PLpro enzymatic assay
- Assay type: biochemical
- recorded.conditions: 200 nM PLpro, 10 μM FRET substrate, 30 min preincubation at 30° C.; read-out: IC50
Give IC50 for every item shown.

Which IC50 is reported for this compound? Cc1ccc(N2CC[C@@H](N(C)C)C2)cc1C(=O)N[C@H](C)c1cc(-c2ccn(C)n2)nc2ccccc12 [Example 100] < 500 nM

Which IC50 is reported for this compound? Cc1ccc(OCCN(C)C)cc1C(=O)N[C@H](C)c1cc(-c2cccc3[nH]ncc23)nc2ccccc12 [Example 50] < 500 nM

Which IC50 is reported for this compound? Cc1ccc(OCCN(C)C)cc1C(=O)N[C@H](C)c1cc(-n2cncn2)nc2ccccc12 [Example 47] 500 to 1000 nM

Which IC50 is reported for this compound? Cc1ccc(OC[C@@H]2CCCN2C)cc1C(=O)N[C@H](C)c1cc(-c2cnn(C)c2)nc2ccccc12 [Example 84] < 500 nM

Which IC50 is reported for this compound? Cc1ccc(OCCN(C)C)cc1C(=O)N[C@H](C)c1cc(-c2ccn[nH]2)nc2ccccc12 [Example 15] < 500 nM

Which IC50 is reported for this compound? Cc1ccc(N2CCN(C)[C@H](C)C2)cc1C(=O)N[C@H](C)c1cc(-c2cnn(C)c2)nc2ccccc12 [Example 79] < 500 nM

Which IC50 is reported for this compound? Cc1ccc(OCCN(C)C)cc1C(=O)N[C@H](C)c1cc(-c2ccc(CN3CCOCC3)o2)nc2ccccc12 [Example 72] < 500 nM

Which IC50 is reported for this compound? Cc1ccc(OC[C@@H]2CCN2C)cc1C(=O)NC1(c2cc(-c3cnn(C)c3)nc3ccccc23)CC1 [Example 115] < 500 nM

Which IC50 is reported for this compound? Cc1ccc(OCCN(C)C)cc1C(=O)N[C@H](C)c1cc(-c2cc[nH]c(=O)c2)nc2ccccc12 [Example 54] 500 to 1000 nM

Which IC50 is reported for this compound? Cc1ccc(OCCN(C)C)cc1C(=O)N[C@H](C)c1cc(-c2cnn(CCN(C)C)c2)nc2ccccc12 [Example 12] < 500 nM

Which IC50 is reported for this compound? Cc1ccc(OCCN(C)C)cc1C(=O)N[C@H](C)c1cc(-c2cnn(CC(N)=O)c2)nc2ccccc12 [Example 24] < 500 nM

Which IC50 is reported for this compound? Cc1ccc(C2=CCN(C)CC2)cc1C(=O)N[C@H](C)c1cc(-c2cnn(C)c2)nc2ccccc12 [Example 86] 1000 to 5000 nM
